# Experimental system: T1, IL-2R on human primary T cells (human, UniProt P01589 22-272; P14784 27-551; P31785 23-369)
# T1 sequence (looked up) 1: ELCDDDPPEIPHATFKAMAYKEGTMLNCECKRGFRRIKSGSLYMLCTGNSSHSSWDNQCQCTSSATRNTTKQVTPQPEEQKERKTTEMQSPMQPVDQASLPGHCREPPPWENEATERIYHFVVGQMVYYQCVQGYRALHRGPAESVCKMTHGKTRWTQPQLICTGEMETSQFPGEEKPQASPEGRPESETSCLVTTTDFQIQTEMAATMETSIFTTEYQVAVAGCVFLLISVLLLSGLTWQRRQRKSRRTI
# T1 sequence (looked up) 2: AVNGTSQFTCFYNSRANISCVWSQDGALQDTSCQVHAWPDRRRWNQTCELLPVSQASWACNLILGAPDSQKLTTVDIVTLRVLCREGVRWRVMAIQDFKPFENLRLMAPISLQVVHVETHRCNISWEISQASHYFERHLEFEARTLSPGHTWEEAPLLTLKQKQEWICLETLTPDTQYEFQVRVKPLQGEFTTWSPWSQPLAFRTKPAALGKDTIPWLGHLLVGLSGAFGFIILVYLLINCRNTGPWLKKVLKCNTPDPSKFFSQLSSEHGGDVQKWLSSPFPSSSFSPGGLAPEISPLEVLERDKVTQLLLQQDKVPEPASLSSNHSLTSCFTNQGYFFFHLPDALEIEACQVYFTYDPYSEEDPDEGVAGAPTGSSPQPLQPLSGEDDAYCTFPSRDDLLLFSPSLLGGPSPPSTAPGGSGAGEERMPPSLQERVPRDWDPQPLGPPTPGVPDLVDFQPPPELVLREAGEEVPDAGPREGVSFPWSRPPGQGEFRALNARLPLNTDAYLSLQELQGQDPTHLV
# T1 sequence (looked up) 3: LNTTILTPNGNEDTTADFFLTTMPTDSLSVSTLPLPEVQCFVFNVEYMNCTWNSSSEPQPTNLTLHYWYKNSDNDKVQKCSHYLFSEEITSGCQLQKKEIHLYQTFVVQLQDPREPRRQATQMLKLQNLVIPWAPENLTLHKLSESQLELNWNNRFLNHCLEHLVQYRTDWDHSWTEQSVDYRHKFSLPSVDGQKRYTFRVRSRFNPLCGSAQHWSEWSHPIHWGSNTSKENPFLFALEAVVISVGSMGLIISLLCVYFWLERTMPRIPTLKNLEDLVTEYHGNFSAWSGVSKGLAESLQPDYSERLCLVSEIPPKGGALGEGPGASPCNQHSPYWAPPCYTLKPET
# Method: cell-based or functional assay
List of Treg EC50 (nM), STAT5 phosphorylation values.
API: value field is a number in nM; no unit string.

SEQ ID NO 24 (ligand) APTSSSTKKTQLQLEHLLLDLQMILNGINNHKNPKLTRMLTFKFYMPKKATELKHLQCLEEELKPLEEVLRLAQSKNFHLRPRDLISDINVIVLELKGSETTFMCEYADETATIVEFLNRWITFSTSIISTLT    18.3

Reported Treg EC50 (nM), STAT5 phosphorylation for SEQ ID NO 15 (ligand) APTSSSTKKTQLQLEHLLLDLQMILNGINNHKNPRLTRMLTFKFYMPKKATELKHLQCLEEELKPLEEVLRLAPSKNFHLRPRDLISNINVIVLELKGSETTFMCEYADETATIVEFLNRWITFSQSIISTLT was 0.01

Reported Treg EC50 (nM), STAT5 phosphorylation for SEQ ID NO 39 (ligand) APTSSSTKKTQLQLEHLLLDLQMILNGINNYKNPKLTRMLTFKFYMPKKATELKHLQCLEEELKPLEEVLRLAQSKNFHLRPRDLISDINVIVLELKGSETTFMCEYADETATIVEFLNRWITFSQSIISTLT was 91.9

Reported Treg EC50 (nM), STAT5 phosphorylation for SEQ ID NO 33 (ligand) APTSSSTKKTQLQLEHLLLDLQMILNGINNYKNPKLTRMLTFKFYMPKKATELKHLQCLEEELKPLEEVLNLAPSKNFHLRPRDLISDINVIVLELKGSETTFMCEYADETATIVEFLNRWITFSQSIISTLT was 2.53
